What growth inhibition was measured for each of the following?
# assay-remarks: HT29 colon tumor cell growth inhibition, primary screen, imaging, high content imaging, 24 h, CellTiter-Glo (AID 770)
# experimental-setup: HT29 cell number by imaging, measured here: ATP CellTiter-Glo viability, at 10 µM, stronger effect = higher value
Hit rate of the full screen: of about 3,300 compounds, fewer than 10 were called active. A selection follows.
Report as a plain number; the unit % is understood.

[Q] I am curious: what growth inhibition value has been reported for Cn1c(O)c(C=Nc2ccc(Cc3ccncc3)cc2)c(=O)n(C)c1=O ?
[A] -6.92

[Q] I am curious: what growth inhibition value has been reported for CCOC(=O)COc1ccc(Oc2nc(C)cc(OC)n2)nn1 ?
[A] 1.86

[Q] I am curious: what growth inhibition value has been reported for N#CC1=C2SCC(O)(c3ccccc3)N2C(=O)CC1c1ccccc1 (stereo not drawn) ?
[A] 28.5

[Q] I am curious: what growth inhibition value has been reported for CCCCSc1nnc(-c2ccc(NC(C)=O)cc2)n1C ?
[A] 6.32

[Q] I am curious: what growth inhibition value has been reported for COC(=O)CSc1nnc(C)c(=O)[nH]1 ?
[A] -8.35

[Q] I am curious: what growth inhibition value has been reported for C=CCc1c(C)nc(SCCC)[nH]c1=O ?
[A] 9.14

[Q] I am curious: what growth inhibition value has been reported for COc1cccc2c1C(=O)c1c(O)c3c(c(O)c1C2=O)C[C@@](O)(C(C)=O)C[C@@H]3O[C@H]1C[C@H](N)[C@H](O)[C@H](C)O1 ?
[A] 33.6

[Q] I am curious: what growth inhibition value has been reported for Cc1cc(C)nc(NC2=NCC(=O)N2c2ccccc2)n1 ?
[A] -10.6

[Q] I am curious: what growth inhibition value has been reported for CCC(NC(=O)Nn1cnnc1)(C(F)(F)F)C(F)(F)F ?
[A] -0.07

[Q] I am curious: what growth inhibition value has been reported for CCCCCCSC1=C(C#N)C(c2ccccc2)CC(=O)N1 (stereo not drawn) ?
[A] -7.19

[Q] I am curious: what growth inhibition value has been reported for CC(C)c1ccc(O)c(N)c1 ?
[A] 2.95

[Q] I am curious: what growth inhibition value has been reported for CC(C)Cc1nc(N2CCN(C(=O)Cc3ccccc3)CC2)c(C#N)c2c1COC(C)(C)C2 ?
[A] -6.01

[Q] I am curious: what growth inhibition value has been reported for c1ccc(OCc2nn3c(C4CCCCC4)nnc3s2)cc1 ?
[A] -3.2

[Q] I am curious: what growth inhibition value has been reported for COC(=O)c1cc(Br)c(=O)n(Cc2cccnc2)c1 ?
[A] -14.1

[Q] I am curious: what growth inhibition value has been reported for COc1ccc(C2Nc3ccccc3C(=O)N2Cc2ccco2)cc1CN1C(=O)c2ccccc2C1=O (stereo not drawn) ?
[A] -9.9

[Q] I am curious: what growth inhibition value has been reported for O=C1CC(C(=O)O)c2ccccc2N1 (stereo not drawn) ?
[A] 0.11

[Q] I am curious: what growth inhibition value has been reported for COc1ccc(C=NCCC2(O)CC(C)N(C)CC2C)cc1 (stereo not drawn) ?
[A] -0.31

[Q] I am curious: what growth inhibition value has been reported for COc1cc(-c2cc(C(F)(F)F)n3ncc(C(=O)O)c3n2)cc(OC)c1OC ?
[A] -14.3

[Q] I am curious: what growth inhibition value has been reported for N#CC1=C(SCC(=O)c2ccccc2)NC2=C(C(=O)CCC2)C1c1ccco1 (stereo not drawn) ?
[A] 12.5

[Q] I am curious: what growth inhibition value has been reported for Cc1cccc(C)c1OCC(O)CNS(=O)(=O)c1ccccc1C(=O)N1CCOCC1 (stereo not drawn) ?
[A] -0.31

[Q] I am curious: what growth inhibition value has been reported for COc1ccc2c(c1OC)C(=O)N1c3ccccc3SC21 (stereo not drawn) ?
[A] -15.6

[Q] I am curious: what growth inhibition value has been reported for CCOC(=O)C1=C(C)NC(SCC(=O)Nc2nc(C)cs2)=C(C#N)C1c1cccs1 (stereo not drawn) ?
[A] 22.8

[Q] I am curious: what growth inhibition value has been reported for O=C(O)c1c[nH]c2ccc(S(=O)(=O)N3CCOCC3)cc12 ?
[A] -2.36
